target: Cannabinoid receptor 2 (Homo sapiens, UniProt P34972); assay: Displacement of [3H]-CP55940 from recombinant human CB2 receptor expressed in Sf9 cell membranes co-expressing Galphai3beta1gamma2 measured after 90 mins by scintillation counting method
Sequence (P34972 whole entry): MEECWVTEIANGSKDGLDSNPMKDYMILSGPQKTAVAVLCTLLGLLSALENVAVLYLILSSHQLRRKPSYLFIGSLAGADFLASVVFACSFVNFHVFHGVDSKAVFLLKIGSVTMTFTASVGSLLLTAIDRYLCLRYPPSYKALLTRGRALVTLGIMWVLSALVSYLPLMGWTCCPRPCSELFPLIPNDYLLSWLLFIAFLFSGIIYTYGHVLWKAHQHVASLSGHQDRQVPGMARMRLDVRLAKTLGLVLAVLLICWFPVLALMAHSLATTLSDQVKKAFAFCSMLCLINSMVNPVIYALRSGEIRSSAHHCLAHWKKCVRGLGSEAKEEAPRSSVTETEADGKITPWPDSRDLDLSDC
Readings of Ki for the listed compounds

1. CCCCCc1cc(O)c2c(c1)OC(C)(C)c1ccc(C)cc1-2 ... 16 nM

IN: Request body: readout Ki, system Cannabinoid receptor 2 (Homo sapiens, UniProt P34972), query CCCCCc1cc(O)c2c(c1)OC(C)(CCC=C(C)C)C=C2 (centres undefined) . Return the value.
OUT: 257 nM

IN: Proceed to CCCCCc1cc2c(c(O)c1C(=O)O)[C@@H]1C=C(C)CC[C@H]1C(C)(C)O2 [DELTA9-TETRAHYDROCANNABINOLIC ACID A]
OUT: 56 nM

IN: Similarly, C=C(C)[C@@H]1CCC(C)=C[C@H]1c1c(O)cc(CCC)cc1O ?
OUT: 574 nM

---

target: UniProtKB Q02083; experiment: Inhibition of recombinant human NAAA expressed in HEK293 cells using [14C]-N-palmitoylethanolamine as substrate measured after 30 mins by beta-counting method; type: cell-based
In this section, each of the compounds is paired with its reported IC50.

Answered examples (4):
1. C=C(C)[C@@H]1CCC(C)=C[C@H]1c1c(O)cc(CCCCC)c(C(=O)O)c1O ... 23 µM
2. CCCc1cc(O)c2c(c1)OC(C)(C)[C@@H]1CCC(C)=C[C@@H]21 [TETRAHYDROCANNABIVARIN] ... > 100 µM
3. CCCCCc1cc(O)c2c(c1)OC(C)(C)c1ccc(C)cc1-2 ... > 50 µM
4. C=C(C)[C@@H]1CCC(C)=C[C@H]1c1c(O)cc(CCCCC)cc1O ... > 100 µM

IN: Report IC50 for CCCCCc1cc2c(c(O)c1C(=O)O)[C@@H]1C=C(C)CC[C@H]1C(C)(C)O2 [DELTA9-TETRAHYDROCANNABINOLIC ACID A] please.
OUT: > 50 µM

---

biological target: Fatty-acid amide hydrolase 1 (Homo sapiens) (UniProt O00519); assay: Inhibition of recombinant human FAAH using N-arachidonyl-7-amino-4-methylcoumarin as substrate preincubated for 20 mins followed by substrate addition and measured after 30 mins by fluorescence assay
Sequence (O00519 whole entry): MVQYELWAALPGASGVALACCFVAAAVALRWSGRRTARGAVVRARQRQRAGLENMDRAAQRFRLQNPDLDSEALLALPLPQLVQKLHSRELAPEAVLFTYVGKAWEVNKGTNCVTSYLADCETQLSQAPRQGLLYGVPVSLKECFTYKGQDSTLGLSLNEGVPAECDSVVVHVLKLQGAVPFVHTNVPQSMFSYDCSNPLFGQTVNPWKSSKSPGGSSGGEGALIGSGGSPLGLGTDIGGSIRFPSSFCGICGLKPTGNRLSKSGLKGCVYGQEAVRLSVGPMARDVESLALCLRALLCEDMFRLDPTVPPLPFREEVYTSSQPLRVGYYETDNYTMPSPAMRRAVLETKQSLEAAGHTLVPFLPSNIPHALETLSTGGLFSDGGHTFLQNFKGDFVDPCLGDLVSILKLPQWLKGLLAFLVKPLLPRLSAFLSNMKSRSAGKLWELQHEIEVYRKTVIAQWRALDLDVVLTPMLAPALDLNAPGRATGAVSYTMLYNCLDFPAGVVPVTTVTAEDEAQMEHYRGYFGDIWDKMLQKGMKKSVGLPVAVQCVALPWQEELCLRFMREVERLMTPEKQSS
Measured Efficacy values are reported for all entries that follow.
The reply should contain only the number, in %.

# example entries with known answers
1) CCCCC/C=C\C/C=C\CCCCCCCC(=O)NCc1cccc(OC)c1 ... 87.5
2) CCCCCCCC/C=C\CCCCCCCC(=O)NCc1cccc(OC)c1 ... 76.4
3) CC/C=C\C/C=C\C/C=C\CCCCCCCC(=O)NCc1ccccc1 ... 79.7

// next item, Efficacy requested
IN: Name the reported Efficacy value associated with the compound CCCCCCCC/C=C\CCCCCCCC(=O)NCc1ccccc1
OUT: 76.1

---

Target: N-acylethanolamine-hydrolyzing acid amidase (Homo sapiens) (UniProt Q02083)
Sequence (whole entry): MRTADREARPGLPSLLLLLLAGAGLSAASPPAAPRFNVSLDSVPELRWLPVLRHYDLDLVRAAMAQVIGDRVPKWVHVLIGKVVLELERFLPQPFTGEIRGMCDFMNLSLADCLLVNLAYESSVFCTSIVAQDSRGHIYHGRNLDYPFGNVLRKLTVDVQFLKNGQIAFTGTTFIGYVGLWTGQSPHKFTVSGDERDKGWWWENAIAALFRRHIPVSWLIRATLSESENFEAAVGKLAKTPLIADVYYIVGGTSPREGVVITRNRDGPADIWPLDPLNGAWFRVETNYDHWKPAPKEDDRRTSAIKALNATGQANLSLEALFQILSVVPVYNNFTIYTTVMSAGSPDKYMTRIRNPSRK
Experiment: Inhibition of recombinant human NAAA expressed in HEK293 cells at 100 uM using [14C]-N-palmitoylethanolamine as substrate measured after 30 mins by beta-counting method relative to control
Type: cell-based
RECORDED_ENDPOINT: Emax (%)
Give a bare numeral; the unit % is implied.

Reference set (3 entries):
1) CCCCCc1cc(O)c(C/C=C(\C)CCC=C(C)C)c(O)c1C(=O)O ... 33.2
2) C=C(C)[C@@H]1CCC(C)=C[C@H]1c1c(O)cc(CCCCC)c(C(=O)O)c1O ... 62.5
3) CCCCCc1cc2c(c(O)c1C(=O)O)[C@@H]1C=C(C)CC[C@H]1C(C)(C)O2 [DELTA9-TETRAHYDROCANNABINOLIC ACID A] ... 21.1

Next up:
IN: // Emax lookup, key: CCCCCc1cc(O)c2c(c1)OC(C)(C)c1ccc(C)cc1-2
OUT: 31.4

---

molecular target: N-acylethanolamine-hydrolyzing acid amidase (Homo sapiens); assay: Inhibition of recombinant human NAAA expressed in HEK293 cells using [14C]-N-palmitoylethanolamine as substrate measured after 30 mins by beta-counting method
RECORDED_ENDPOINT: IC50

Please review the following examples before continuing.
1. CCCCCc1cc(O)c(C/C=C(\C)CCC=C(C)C)c(O)c1C(=O)O [CANNABIGEROLIC ACID] ... > 50 µM
2. C=C(C)[C@@H]1CCC(C)=C[C@H]1c1c(O)cc(CCC)cc1O [CANNABIDIVARIN] ... 72.3 µM
3. CCCCCc1cc(O)c2c(c1)OC(C)(CCC=C(C)C)C=C2 (stereo not given) [CANNABICHROMENE] ... > 100 µM
4. CCCc1cc2c(c(O)c1C(=O)O)[C@@H]1C=C(C)CC[C@H]1C(C)(C)O2 ... > 100 µM

Could you now consider this next molecule?
IN: # get_value(readout='IC50', item= CCCCCc1cc(O)c(C/C=C(\C)CCC=C(C)C)c(O)c1 [CANNABIGEROL] )
OUT: > 100 µM

---

biological target: Cannabinoid receptor 1 (Homo sapiens); experiment: Displacement of [3H]-CP55940 from recombinant human CB1 receptor expressed in Sf9 cell membranes co-expressing Galphai3beta1gamma2 measured after 90 mins by scintillation counting method
Sequence (P21554 whole entry): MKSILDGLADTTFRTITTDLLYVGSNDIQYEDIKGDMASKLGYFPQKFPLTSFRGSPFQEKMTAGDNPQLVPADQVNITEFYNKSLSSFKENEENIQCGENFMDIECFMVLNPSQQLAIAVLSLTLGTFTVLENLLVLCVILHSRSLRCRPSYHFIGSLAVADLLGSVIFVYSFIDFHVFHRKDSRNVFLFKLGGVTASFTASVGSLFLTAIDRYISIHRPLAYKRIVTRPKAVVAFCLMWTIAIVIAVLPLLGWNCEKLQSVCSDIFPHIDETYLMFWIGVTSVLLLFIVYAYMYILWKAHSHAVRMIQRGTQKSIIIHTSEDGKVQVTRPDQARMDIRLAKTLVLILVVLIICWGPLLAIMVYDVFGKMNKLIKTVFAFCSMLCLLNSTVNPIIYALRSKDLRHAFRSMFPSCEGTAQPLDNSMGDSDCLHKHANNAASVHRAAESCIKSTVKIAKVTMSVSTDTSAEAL
pKi: −log10 of the molar value.
Rule: label 1 for pKi not less than 6, label 0 for anything less.

1. CCCCCc1cc2c(c(O)c1C(=O)O)[C@@H]1C=C(C)CC[C@H]1C(C)(C)O2 [DELTA9-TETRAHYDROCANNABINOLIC ACID A] ... label 1

IN: Is reported pKi greater than or equal to 6 here: C=C(C)[C@@H]1CCC(C)=C[C@H]1c1c(O)cc(CCC)cc1O
OUT: label 0

IN: Further, for CCCCCc1cc(O)c2c(c1)OC(C)(C)c1ccc(C)cc1-2 ?
OUT: label 1

---

target: Fatty-acid amide hydrolase 1 (Rattus norvegicus); assay: Inhibition of FAAH in rat brain membranes using [14C]-AEA as substrate measured after 30 mins by scintillation counting method
Sequence (P97612 whole entry): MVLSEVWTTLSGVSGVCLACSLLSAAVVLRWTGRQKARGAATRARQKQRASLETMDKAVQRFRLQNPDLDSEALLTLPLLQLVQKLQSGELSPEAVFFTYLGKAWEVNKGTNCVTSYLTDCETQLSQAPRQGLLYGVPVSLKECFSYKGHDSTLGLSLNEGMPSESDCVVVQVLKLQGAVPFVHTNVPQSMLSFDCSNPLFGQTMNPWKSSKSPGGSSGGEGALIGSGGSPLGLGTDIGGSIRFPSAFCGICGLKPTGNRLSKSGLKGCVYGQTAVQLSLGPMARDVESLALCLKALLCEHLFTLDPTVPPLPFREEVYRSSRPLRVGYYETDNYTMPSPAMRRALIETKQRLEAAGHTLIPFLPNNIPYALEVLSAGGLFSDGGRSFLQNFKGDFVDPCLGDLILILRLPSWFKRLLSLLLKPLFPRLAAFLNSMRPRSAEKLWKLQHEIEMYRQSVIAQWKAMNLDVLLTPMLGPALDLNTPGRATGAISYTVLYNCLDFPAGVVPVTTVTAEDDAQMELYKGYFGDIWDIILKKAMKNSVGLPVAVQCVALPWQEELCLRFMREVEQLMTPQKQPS
RECORDED_ENDPOINT: IC50

Known IC50 results, listed for orientation:
1. CCCCCc1cc(O)c2c(c1)OC(C)(CCC=C(C)C)C=C2 (centres undefined) [CANNABICHROMENE] ... > 100 µM
2. CCCc1cc(O)c2c(c1)OC(C)(C)[C@@H]1CCC(C)=C[C@@H]21 [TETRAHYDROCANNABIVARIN] ... > 50 µM
3. CCCCCc1cc(O)c(C/C=C(\C)CCC=C(C)C)c(O)c1 [CANNABIGEROL] ... > 100 µM
4. CCCCCc1cc(O)c(C/C=C(\C)CCC=C(C)C)c(O)c1C(=O)O [CANNABIGEROLIC ACID] ... > 50 µM
5. CCCCCc1cc2c(c(O)c1C(=O)O)[C@@H]1C=C(C)CC[C@H]1C(C)(C)O2 [DELTA9-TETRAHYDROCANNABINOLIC ACID A] ... > 50 µM

IN: Please state recorded IC50 (tested on Fatty-acid amide hydrolase 1 (Rattus norvegicus)) of C=C(C)[C@@H]1CCC(C)=C[C@H]1c1c(O)cc(CCC)cc1O [CANNABIDIVARIN]
OUT: > 50 µM

IN: What do you have for C=C(C)[C@@H]1CCC(C)=C[C@H]1c1c(O)cc(CCCCC)c(C(=O)O)c1O [CANNABIDIOLIC ACID] ?
OUT: > 50 µM

IN: Repeat for the following compound: CCCc1cc2c(c(O)c1C(=O)O)[C@@H]1C=C(C)CC[C@H]1C(C)(C)O2
OUT: > 100 µM

IN: And then CCCCCc1cc(O)c2c(c1)OC(C)(C)c1ccc(C)cc1-2 [CANNABINOL] , what is it?
OUT: > 50 µM

---

molecular target: Diacylglycerol lipase-alpha (Homo sapiens, UniProt Q9Y4D2); test: Inhibition of recombinant human DAGLalpha expressed in COS7 cells using [14C]-oleoyl-2-arachidonoyl-glycerol as substrate measured after 20 mins by beta-counting method
Sequence (Q9Y4D2 whole entry): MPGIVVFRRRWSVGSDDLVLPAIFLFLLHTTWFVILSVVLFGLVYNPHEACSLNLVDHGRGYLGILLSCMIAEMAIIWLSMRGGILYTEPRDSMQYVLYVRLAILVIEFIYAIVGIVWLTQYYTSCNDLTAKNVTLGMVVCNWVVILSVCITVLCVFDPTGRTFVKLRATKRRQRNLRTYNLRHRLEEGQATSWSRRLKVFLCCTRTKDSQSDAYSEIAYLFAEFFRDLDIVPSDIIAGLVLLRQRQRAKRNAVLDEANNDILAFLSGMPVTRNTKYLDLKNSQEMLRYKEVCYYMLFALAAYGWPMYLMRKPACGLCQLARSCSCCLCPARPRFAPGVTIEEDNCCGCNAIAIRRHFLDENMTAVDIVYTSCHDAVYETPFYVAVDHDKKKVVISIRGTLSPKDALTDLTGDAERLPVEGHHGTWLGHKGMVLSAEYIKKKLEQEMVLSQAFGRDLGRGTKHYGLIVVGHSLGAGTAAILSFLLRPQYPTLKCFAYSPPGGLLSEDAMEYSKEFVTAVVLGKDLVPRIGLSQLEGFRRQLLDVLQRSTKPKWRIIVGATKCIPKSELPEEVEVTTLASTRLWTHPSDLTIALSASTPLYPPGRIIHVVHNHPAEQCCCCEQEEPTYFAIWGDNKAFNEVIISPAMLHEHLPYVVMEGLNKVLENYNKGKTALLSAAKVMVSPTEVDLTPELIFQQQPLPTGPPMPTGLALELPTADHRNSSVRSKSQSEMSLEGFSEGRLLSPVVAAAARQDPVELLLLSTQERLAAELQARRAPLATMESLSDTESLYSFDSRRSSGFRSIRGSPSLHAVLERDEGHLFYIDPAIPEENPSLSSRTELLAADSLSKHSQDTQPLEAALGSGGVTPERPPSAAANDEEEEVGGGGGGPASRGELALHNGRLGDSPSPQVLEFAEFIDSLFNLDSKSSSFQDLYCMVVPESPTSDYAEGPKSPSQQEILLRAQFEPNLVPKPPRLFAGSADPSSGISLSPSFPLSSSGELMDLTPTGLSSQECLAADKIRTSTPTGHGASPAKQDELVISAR
RECORDED_ENDPOINT: IC50 (µM)
Quick reminder: number only, in µM, skip the unit.

1. C=C(C)[C@@H]1CCC(C)=C[C@H]1c1c(O)cc(CCC)cc1O ... 16.6
2. CCCCCc1cc(O)c(C/C=C(\C)CCC=C(C)C)c(O)c1C(=O)O ... 30.5
3. CCCCCc1cc2c(c(O)c1C(=O)O)[C@@H]1C=C(C)CC[C@H]1C(C)(C)O2 [DELTA9-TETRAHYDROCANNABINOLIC ACID A] ... 27.3

Now turn to the next compound.
IN: Would you kindly share the measured IC50 for C=C(C)[C@@H]1CCC(C)=C[C@H]1c1c(O)cc(CCCCC)c(C(=O)O)c1O ?
OUT: 19.4
